For each of the sequences below, state its apparent KD of MS2 coat protein.
- Test system: MS2 coat protein
- MEASUREMENT_PROTOCOL: apparent KD of MS2 coat protein; higher = weaker reporter binding
- CONDITION: Eterna round: R107; input ligand: theophylline 20 uM
Return type: number; implicit unit nM.

## Task Write down the reported apparent KD of MS2 coat protein (system: MS2 coat protein) of GGGACACCGGGAAGGAGCGCAUCCAAACCACACAUGAGGAUCACCCAUGUAUAAAUAUGCAUGCAGGUAGGUCGCCCGAUGUCUC [Anrearradi]
## Result 121

## Task Would you please give the reported apparent KD of MS2 coat protein of GCACGGGCGAUCGGCACUUUUACUAAUAUACGAGGACCGGUACGGCCGCCACUCGAGCUAAGACAUGAGGAUCACCCAUGUAACG [theeternabot_exclusion_MS2_Trp_A_41] with MS2 coat protein?
## Result 30

## Task Under MS2 coat protein: report apparent KD of MS2 coat protein of ACGUUCGCGGUAUCCAACCGGUUGUACAAACGAGGACCGGUACGGCCGCCACUCGUGAUUGUACAUGAGGAUCACCCAUGUGGCA [theeternabot_exclusion_MS2_Trp_A_28] .
## Result 34.1

====

- Tested on: MS2 coat protein
- MEASUREMENT_PROTOCOL: apparent KD of MS2 coat protein, switch ON state; designed switch direction (-1 OFF switch, 1 ON switch): -1; higher = weaker reporter binding
- CONDITION: FMN input: 0 or 200 uM; Eterna round: R93 (includes R88 designs)
Class Yes: apparent KD of MS2 coat protein at least 40 nM. Class No: apparent KD of MS2 coat protein below 40 nM.

## Task Textbook exercise: given the entry AAAAAACAUGAGGAUCACCCAUGUAAGGAUAUGCUGAAAAACACGGAAAAAACGUGCAGCAGAAGGUACAAAGA [Mat - Exclusion 1 - Eli mod - D96] , state whether its apparent KD of MS2 coat protein is greater than or equal to 40 nM.
## Result No

## Task Is it the case that AAUAAGUGAGGAUAUGGAAAUAGUAGAUAAGAUUCCCUAAACCAGAAGGCACAUGAGGAUCACCCAUGUAAAUA [JR_Exc004_Sub005] has apparent KD of MS2 coat protein reaching or exceeding 40 nM?
## Result No

## Task Check the entry AGCUAGUCAGGAUAUACAAAGAUGUCGAAAGACGUCAAGGGACAUGAGGAUCACCCAUGUAGAAGGGACUAGCA [Mod of Janderson's WEB Mod v.3] : does apparent KD of MS2 coat protein equal or exceed 40 nM?
## Result Yes

## Task Please indicate if the recorded apparent KD of MS2 coat protein for GAAAACAGAGGAUAUACGAAAUUGACACGAAAAGUGCAGGGACAUGAGGAUCACCCAUGUAGAAGGCUGAAGAA [Meechl MS2... 60% 1] meets or exceeds 40 nM.
## Result No

## Task Reported apparent KD of MS2 coat protein at or above 40 nM? AAAAGACAUGAGGAUCACCCAUGUGAGGAUAUCGGAAAAGGAAAAAUAAAAAAGAAGACGAGAAGGCACACCAA [Mat - Exclusion 1 - Eli mod - D75]
## Result Yes

## Task Item AGCUAGUCAGGAUAUACGAACAUGUCAAAAGACGUGAGAGAACAUGAGGAUCACCCAUGUAGAAGGGACUAGCA [Mat - Exclusion 2 - JL-Eli mod - D47] with apparent KD of MS2 coat protein of 40 nM or above?
## Result No

## Task Tell me whether apparent KD of MS2 coat protein is at least 40 nM here: AAAAAACAUGAGGAUCACCCAUGUCAGGAUAUCUGUAUUCAAUCCUCGGAUUGAAUACAGAGAAGGGACAUGGG [Ex1: 601]
## Result No

## Task Quick check: does UAAAAACAUGAGGAUCACCCAUGUCAGGAUAUGUGCUUAAUAAAAAAAUAAAUAACAAGCAGAAGGGACAAUAA [JR_Exc001_Sub201] have apparent KD of MS2 coat protein greater than or equal to 40 nM?
## Result No

## Task Please indicate if the recorded apparent KD of MS2 coat protein for AACAUGUCAGGAUAUUAAAGAAAAGAAAAGAAAGAAAAGAAUAAGAAGGGACAUGAGGAUCACCCAUGUAAGAA [EteRNA is fun!] meets or exceeds 40 nM.
## Result Yes

## Task Textbook exercise: given the entry GGUUGUCGAGGAUAUACAUGAGGAUCACCCAUGUGAGAGAAAAAAGUGAGAAAGAAAAGUAGAAGGUGGUGACG [salish99-ex3-71] , state whether its apparent KD of MS2 coat protein is greater than or equal to 40 nM.
## Result Yes

## Task Evaluate AAAAAGUGAGGAUAUUCGGAAGGGAAAGCGCAAACCCAACCGAAGAAGGCACAUGAGGAUCACCCAUGUGGAAG [Mat - Exaclusion 4 - Eli mod - D57] : apparent KD of MS2 coat protein at minimum 40 nM?
## Result No

## Task Quick check: does AAAAAACAUGAGGAUCACCCAUGUAAGGAUAUGUAAAAUAAAAGAAAAAUAAAGAAAAGCAGAAGGUACAUGAA [JL wbt mod 14] have apparent KD of MS2 coat protein greater than or equal to 40 nM?
## Result No

## Task Could you please find out whether AGGGAACAUGAGGAUCACCCAUGUGAGGAUAUUCAAAAGAAAAGAAAAGAAAGAAGAAGAAGAAGGUACAAGAA [Neferkare Pepi II] has apparent KD of MS2 coat protein that meets 40 nM or exceeds it?
## Result Yes

====

Give apparent KD of K4 kissing-loop reporter for every item shown.
- Test system: K4 kissing-loop RNA reporter;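 note: bound reporter read as fluorescence of individual clusters on recovered sequencing chips by microscopy, with normalized cluster intensities fitted with a binding model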
- MEASUREMENT_PROTOCOL: apparent KD of K4 kissing-loop reporter; higher = weaker reporter binding
- CONDITION: Eterna round: R107; input ligand: FMN 200 uM
The reply should consist of the numeric value with the unit placed after it.

## Task Hello, please tell me recorded apparent KD of K4 kissing-loop reporter for this one: ACAAAAGUGAUGUUUUUGAACGUGCGCGAUACCAGAAAUGUCUUCUUCCCUUGGCAGCGCUAUUACUUGUAAGAAAGUACGUUUC [theeternabot_sameState_KL_Theo_A_17]
## Result 969 nM

## Task Recall and state the measured apparent KD of K4 kissing-loop reporter for CGCAAGCAGCCAGUGAUGUUGGCCGCCUUGCGAGGACCGGUACGGCCGCCACUCGAAGGCGGCUACUAGUAAACCGCCUAACGGA [KL-XTryp-A17] .
## Result 105 nM

## Task Write down apparent KD of K4 kissing-loop reporter measured for item GCAGUGAUGUUGCAAAAUGUCUGUGGUAGUCGAGGACCGGUACGGCCGCCACUCGGUGAGAACCUGCUAAUACAUCGAUAAGUGA [IX]
## Result 706 nM

## Task Complete the entry with apparent KD of K4 kissing-loop reporter for AAUUUAUAUUUAUUCUUUAAAUGUUCAGAAGGAGCGUGAAUUAUCACAGGUAGGUCGCUGAGCUAGUGAUGUUAGCUAUAUACUA [JR_ExcArginiA_Sub007]
## Result 50.3 nM

## Task Tell me measured apparent KD of K4 kissing-loop reporter for UGUAUGUGAUUUGAUACCAGACCAGCUGGUGGUGUAUGAGUGAUGUUCAUGCUGGUUUGGGUCCCUUGGCAGCAAAUCGCAUACU [KL-SSTheoB29] please.
## Result 10.6 nM

## Task Given AAGGUUUAGCACGAUACCAGCCUGGAGGCCAGUGAUGUUGGCCGAUUUGAACAGAAUUAAGGCCCUUGGCAGCGUCUCUAAAACC [Dierra] , respond with its apparent KD of K4 kissing-loop reporter.
## Result 191 nM

====

- System: MS2 coat protein
- MEASUREMENT_PROTOCOL: apparent KD of MS2 coat protein; designed switch direction (-1 OFF switch, 1 ON switch): 1; higher = weaker reporter binding
- CONDITION: Eterna round: R95; input ligand: FMN 200 uM
PROPERTY: apparent KD of MS2 coat protein (nM)
Kindly provide the numeric value in nM only, without the unit symbol.

## Task Indicate the recorded apparent KD of MS2 coat protein value for this sequence: UAGACAAGCUUUAUGUUCUUCCUAUUCCAACAUGAGGAUCACCCAUGUAGUCUGUCGAUUGUGAGUGUAGUUGAGAU [JR_SHM208A_Sub026] (puzzle: Sensor for hsa-mir-208a)
## Result 57.8

## Task Read the entry AGCUUCAAACUUUGCUCGUCGCGCCAGCGACAUGAGGAUCACCCAUGUGGGCGCAACCUCGUUAGCCCGAGGGCUCG [Labire] (puzzle: Sensor for hsa-mir-208a) and write its reported apparent KD of MS2 coat protein.
## Result 27.1

## Task Give the value of apparent KD of MS2 coat protein reported for the following: GUUAAACAUGAGGAUCACCCAUGUAAUAAUAUGGGAGGAUAUGGGAAUUAAUUAAUUAAACCAGAAGGCCUAAUUG [Mat - Same State 1 - D84] (puzzle: Same State 1)
## Result 25.3

## Task Please give measured apparent KD of MS2 coat protein of the following entry: AAGUAACAUGAGGAUCACCCAUGUGAGGUGAGCGUAGGAUAUCGAGGAGGAAGGGUGGAGCGAGAAGGACGAGAGG [JR_SS1_Sub099] (puzzle: Same State 1)
## Result 375

## Task Write down apparent KD of MS2 coat protein measured for item UGGAUCUAGGCUUGCCUGGGUCCUUCAAGACAUGAGGAUCACCCAUGUGUUUUUUUUUUGCUUUUUGUUUGUCUUGA [JL A Humble Attempt mod 2] (puzzle: Sensor for hsa-mir-208a)
## Result 50.8
